# Test system: Wnt activity (Sp5-Luc reporter, SW480 colon carcinoma cells)
# protocol-description: Screening assay for Wnt activity: Sp5-Luc reporter gene assay in SW480 cells
# Type: cell-based
# experimental-context: Homo sapiens, 42 h incubation, luminescence
pIC50: −log10 of the molar value.
parameter: pIC50

In the examples that follow, each entry is paired with its recorded pIC50.
Cc1ccc(-c2nccc3[nH]c(-c4n[nH]c5ccc(-c6cncc(N)c6)cc45)nc23)s1 = 8.89
c1cncc(-c2ccc3[nH]nc(-c4nc5c(N6CCOCC6)nccc5[nH]4)c3c2)c1 = 7.70
CN1CCN(c2nccc3[nH]c(-c4n[nH]c5ccc(-c6cnn(C7CC7)c6)cc45)nc23)CC1 = 7.05

(I) O=C(Nc1cncc(-c2ccc3[nH]nc(-c4nc5c(-c6cccc(F)c6)nccc5[nH]4)c3c2)c1)C1CC1
(II) CN(C)Cc1cncc(-c2ccc3[nH]nc(-c4nc5c(-c6cccc(F)c6)nccc5[nH]4)c3c2F)c1
(III) CN(C)Cc1cncc(-c2cc(F)c3[nH]nc(-c4nc5c(-c6cccc(F)c6)nccc5[nH]4)c3c2)c1
(IV) Fc1ccc(-c2nccc3[nH]c(-c4n[nH]c5ccc(-c6cncc(CN7CCCC7)c6)cc45)nc23)s1
(V) CCNCc1cncc(-c2ccc3[nH]nc(-c4nc5c(-c6ccoc6)nccc5[nH]4)c3c2)c1
## Input Falling order of pIC50, please. Reply: labels, ordered per the request.
## Output I, V, III, IV, II

---

Measured pEC50, listed per entry.
# Tested on: primary human fibroblasts derived from IPF patients (LL29 cells)
# protocol-description: Inhibition of fibrosis: TGF-β1-treated primary human fibroblasts from IPF patients (LL29), αSMA staining
# Format: cell-based
# experimental-context: Fibroblast, 96 h, TGF-β1 20 ng/mL, 4 days, % αSMA-positive cells
In simple prose, pEC50 is minus the logarithm base ten of a concentration in moles per litre.

In the examples that follow, each entry is paired with its recorded pEC50.
Cc1cn(-c2nccc3[nH]c(-c4n[nH]c5ccc(-c6cncc(NC(=O)CC(C)C)c6)cc45)nc23)cn1 [Compound 184] = 7.31
FC1(F)CCN(Cc2cncc(-c3ccc4[nH]nc(-c5nc6c(N7CCCCC7)nccc6[nH]5)c4c3)c2)C1 [Compound 181] = 7.09
CC(C)(C)C(=O)Nc1cncc(-c2ccc3[nH]nc(-c4nc5c(-c6ccc(F)s6)nccc5[nH]4)c3c2)c1 [Compound 320] = 6.94
NC1CN(c2cncc(-c3ccc4[nH]nc(-c5nc6c(-c7cccc(F)c7)nccc6[nH]5)c4c3)n2)C1 [Compound 1774] = 6.99
O=C(Nc1cncc(-c2ccc3[nH]nc(-c4nc5c(-c6ccccn6)nccc5[nH]4)c3c2)c1)C1CCC1 [Compound 150] = 5.82

Here is the next item to consider.
## Input What does the record list as pEC50 for O=C(Nc1cncc(-c2ccc3[nH]nc(-c4nc5c(-c6ccccc6F)nccc5[nH]4)c3c2)c1)C1CCCC1 [Compound 73] ?
## Output 8.05

---

# Test system: Wnt activity (Sp5-Luc reporter, SW480 colon carcinoma cells)
# protocol-description: Screening assay for Wnt activity: Sp5-Luc reporter gene assay in SW480 cells
# Type: cell-based
# experimental-context: Homo sapiens, 42 h incubation, luminescence
pIC50: −log10 of the molar value.
parameter: pIC50

In the examples that follow, each entry is paired with its recorded pIC50.
CC(C)Nc1cncc(-c2ccc3[nH]nc(-c4nc5c(N6CCCCC6)nccc5[nH]4)c3c2)c1 [Compound 168] = 7.06
CS(=O)(=O)NCc1cc(F)cc(-c2nccc3[nH]c(-c4n[nH]c5ccc(-c6cncc(CNCc7ccccc7)c6)cc45)nc23)c1 [Compound 413] = 6.73

(a) COc1cncc(-c2ccc3[nH]nc(-c4nc5c(-c6cccc(F)c6)nccc5[nH]4)c3c2)c1 [Compound 1780]
(b) CCC(=O)Nc1cncc(-c2ccc3[nH]nc(-c4nc5c(N6CCCCC6)nccc5[nH]4)c3c2)c1 [Compound 157]
## Input Sort a and b by pIC50 descending and give the first. # reply format: chosen label
## Output a
(a: 7.60, b: 6.74)
